Molecular target: Serine/threonine-protein kinase MRCK alpha (Homo sapiens)
Details: at 1 µM
Collected residual activity values appear next to each entry.

>  <structureNotation>
C[C@@H](N)[C@H]1CC[C@H](C(=O)Nc2ccncc2)CC1

>  <targetUnderTest>
Serine/threonine-protein kinase MRCK alpha (Homo sapiens)

>  <residual activity [%]>
98

$$$$
>  <structureNotation>
O=C(Nc1cccc(Nc2cc(Nc3cccc(C(F)(F)F)c3)ncn2)c1)C1CC1

>  <targetUnderTest>
Serine/threonine-protein kinase MRCK alpha (Homo sapiens)

>  <residual activity [%]>
92

$$$$
>  <structureNotation>
COc1cc2ncnc(Nc3ccc(Oc4ccccc4)cc3)c2cc1OC

>  <targetUnderTest>
Serine/threonine-protein kinase MRCK alpha (Homo sapiens)

>  <residual activity [%]>
103

$$$$
>  <structureNotation>
CC#CC(=O)Nc1cc2c(Nc3ccc(F)c(Cl)c3)ncnc2cn1

>  <targetUnderTest>
Serine/threonine-protein kinase MRCK alpha (Homo sapiens)

>  <residual activity [%]>
98

$$$$
>  <structureNotation>
Nc1cccc(-c2cc3c(Oc4cccc(O)c4)ncnc3[nH]2)c1

>  <targetUnderTest>
Serine/threonine-protein kinase MRCK alpha (Homo sapiens)

>  <residual activity [%]>
123

$$$$
>  <structureNotation>
CCOc1cc2ncnc(Nc3cccc(Br)c3)c2cc1OCC

>  <targetUnderTest>
Serine/threonine-protein kinase MRCK alpha (Homo sapiens)

>  <residual activity [%]>
88

$$$$
>  <structureNotation>
COc1ccc(S(=O)(=O)N(CCO)c2ccccc2CN(C)C/C=C/c2ccc(Cl)cc2)cc1

>  <targetUnderTest>
Serine/threonine-protein kinase MRCK alpha (Homo sapiens)

>  <residual activity [%]>
119

$$$$
>  <structureNotation>
c1ccc(-c2n[nH]c3c2oc2ccccc23)cc1

>  <targetUnderTest>
Serine/threonine-protein kinase MRCK alpha (Homo sapiens)

>  <residual activity [%]>
92

$$$$
>  <structureNotation>
N#CC(C#N)=C(N)/C(C#N)=C/c1ccc(O)cc1

>  <targetUnderTest>
Serine/threonine-protein kinase MRCK alpha (Homo sapiens)

>  <residual activity [%]>
90

$$$$
>  <structureNotation>
O=C(O)c1ccc2c3c1cccc3c(=O)n1c3ccccc3nc21

>  <targetUnderTest>
Serine/threonine-protein kinase MRCK alpha (Homo sapiens)

>  <residual activity [%]>
107

$$$$
>  <structureNotation>
O=Nc1c(-c2c(O)[nH]c3ccccc23)[nH]c2ccccc12

>  <targetUnderTest>
Serine/threonine-protein kinase MRCK alpha (Homo sapiens)

>  <residual activity [%]>
142

$$$$

###

Target: CDK3/cyclin E (Homo sapiens) (UniProt P24864+O96020+Q00526)
Sequence (O96020 whole entry, looked up): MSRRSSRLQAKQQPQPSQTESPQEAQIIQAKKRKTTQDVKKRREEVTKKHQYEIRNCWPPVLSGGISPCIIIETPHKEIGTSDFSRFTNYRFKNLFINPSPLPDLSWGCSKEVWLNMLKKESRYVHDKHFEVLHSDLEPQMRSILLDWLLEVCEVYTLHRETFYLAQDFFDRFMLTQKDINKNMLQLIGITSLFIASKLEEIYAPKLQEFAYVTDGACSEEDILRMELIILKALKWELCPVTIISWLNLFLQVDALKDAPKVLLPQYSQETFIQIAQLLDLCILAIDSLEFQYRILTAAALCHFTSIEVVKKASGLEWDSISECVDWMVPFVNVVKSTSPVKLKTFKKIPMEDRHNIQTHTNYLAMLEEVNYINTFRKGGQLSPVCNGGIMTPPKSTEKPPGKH
Sequence (P24864 whole entry, looked up): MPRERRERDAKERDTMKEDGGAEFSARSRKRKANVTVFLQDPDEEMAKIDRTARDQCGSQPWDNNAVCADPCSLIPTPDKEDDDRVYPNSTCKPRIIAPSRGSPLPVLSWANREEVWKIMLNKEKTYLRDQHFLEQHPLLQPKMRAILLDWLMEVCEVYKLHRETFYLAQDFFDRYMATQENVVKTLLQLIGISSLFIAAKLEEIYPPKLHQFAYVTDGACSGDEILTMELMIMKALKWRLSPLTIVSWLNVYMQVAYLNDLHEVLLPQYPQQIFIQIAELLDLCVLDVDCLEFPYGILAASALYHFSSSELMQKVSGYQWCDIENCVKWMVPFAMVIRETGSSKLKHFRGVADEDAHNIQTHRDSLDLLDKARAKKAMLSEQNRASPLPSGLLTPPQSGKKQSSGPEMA
Sequence (Q00526 whole entry, looked up): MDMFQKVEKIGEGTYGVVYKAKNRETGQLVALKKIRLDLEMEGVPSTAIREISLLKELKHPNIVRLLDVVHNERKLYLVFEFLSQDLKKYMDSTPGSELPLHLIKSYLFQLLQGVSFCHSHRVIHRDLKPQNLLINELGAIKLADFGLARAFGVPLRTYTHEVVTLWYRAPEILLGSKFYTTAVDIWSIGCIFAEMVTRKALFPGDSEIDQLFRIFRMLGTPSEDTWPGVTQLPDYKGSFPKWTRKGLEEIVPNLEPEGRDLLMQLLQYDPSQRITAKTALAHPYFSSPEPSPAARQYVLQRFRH
Conditions: at 1 µM

>  <compound>
CC(C)n1cnc2c(NCc3ccccc3)nc(NCCCO)nc21

>  <targetUnderTest>
CDK3/cyclin E (Homo sapiens) (UniProt P24864+O96020+Q00526)

>  <resultUnits>
%

>  <residual activity>
71

$$$$
>  <compound>
COc1cc2ncnc(N3CCN(C(=O)Nc4ccc(Oc5ccccc5)cc4)CC3)c2cc1OC

>  <targetUnderTest>
CDK3/cyclin E (Homo sapiens) (UniProt P24864+O96020+Q00526)

>  <resultUnits>
%

>  <residual activity>
79

$$$$
>  <compound>
c1ccc2c(-c3ccncc3)c[nH]c2c1

>  <targetUnderTest>
CDK3/cyclin E (Homo sapiens) (UniProt P24864+O96020+Q00526)

>  <resultUnits>
%

>  <residual activity>
90

$$$$
>  <compound>
COc1ccc(OC)c2c(=S)c3ccccc3[nH]c12

>  <targetUnderTest>
CDK3/cyclin E (Homo sapiens) (UniProt P24864+O96020+Q00526)

>  <resultUnits>
%

>  <residual activity>
92

$$$$
>  <compound>
Oc1c2ccccc2c2c3c(cccc13)N=N2

>  <targetUnderTest>
CDK3/cyclin E (Homo sapiens) (UniProt P24864+O96020+Q00526)

>  <resultUnits>
%

>  <residual activity>
26

$$$$
>  <compound>
Cc1cc(Nc2nc(-c3ccccc3)nc3ccccc23)n[nH]1

>  <targetUnderTest>
CDK3/cyclin E (Homo sapiens) (UniProt P24864+O96020+Q00526)

>  <resultUnits>
%

>  <residual activity>
63

$$$$
>  <compound>
Cc1cccc(-c2[nH]c(C(C)(C)C)nc2-c2ccc3c(c2)OCO3)n1

>  <targetUnderTest>
CDK3/cyclin E (Homo sapiens) (UniProt P24864+O96020+Q00526)

>  <resultUnits>
%

>  <residual activity>
90

$$$$
>  <compound>
Nc1nc(Nc2ccc(S(N)(=O)=O)cc2)nn1C(=S)Nc1c(F)cccc1F

>  <targetUnderTest>
CDK3/cyclin E (Homo sapiens) (UniProt P24864+O96020+Q00526)

>  <resultUnits>
%

>  <residual activity>
-2

$$$$
>  <compound>
CO[C@H]1[C@@H](OC)C[C@H](C)[C@@H](OC)C2=CC(=O)C=C(NC(=O)/C(C)=C/C=C/[C@H](OC)[C@@H](OC(N)=O)/C(C)=C/[C@@H]1C)C2=O

>  <targetUnderTest>
CDK3/cyclin E (Homo sapiens) (UniProt P24864+O96020+Q00526)

>  <resultUnits>
%

>  <residual activity>
100

$$$$
>  <compound>
Ic1cccc(CSc2nnc(-c3ccncc3)o2)c1

>  <targetUnderTest>
CDK3/cyclin E (Homo sapiens) (UniProt P24864+O96020+Q00526)

>  <resultUnits>
%

>  <residual activity>
70

$$$$
>  <compound>
O=C1c2ccccc2-[n+]2ccc3c([nH]c4ccccc43)c21

>  <targetUnderTest>
CDK3/cyclin E (Homo sapiens) (UniProt P24864+O96020+Q00526)

>  <resultUnits>
%

>  <residual activity>
87

$$$$
>  <compound>
CC#CC(=O)Nc1cc2c(Nc3ccc(F)c(Cl)c3)ncnc2cn1

>  <targetUnderTest>
CDK3/cyclin E (Homo sapiens) (UniProt P24864+O96020+Q00526)

>  <resultUnits>
%

>  <residual activity>
97

$$$$
>  <compound>
CN(C)CCCn1cc(C2=C(c3c[nH]c4ccccc34)C(=O)NC2=O)c2ccccc21

>  <targetUnderTest>
CDK3/cyclin E (Homo sapiens) (UniProt P24864+O96020+Q00526)

>  <resultUnits>
%

>  <residual activity>
88

$$$$
>  <compound>
C[C@@H](N)[C@H]1CC[C@H](C(=O)Nc2ccncc2)CC1

>  <targetUnderTest>
CDK3/cyclin E (Homo sapiens) (UniProt P24864+O96020+Q00526)

>  <resultUnits>
%

>  <residual activity>
117

$$$$
>  <compound>
O=C1NC(=O)c2c1c1c3ccccc3[nH]c1c1[nH]c3cc(Br)ccc3c21

>  <targetUnderTest>
CDK3/cyclin E (Homo sapiens) (UniProt P24864+O96020+Q00526)

>  <resultUnits>
%

>  <residual activity>
88

$$$$
>  <compound>
N#CC(C#N)=C(N)/C(C#N)=C/c1ccc(O)cc1

>  <targetUnderTest>
CDK3/cyclin E (Homo sapiens) (UniProt P24864+O96020+Q00526)

>  <resultUnits>
%

>  <residual activity>
94

$$$$
>  <compound>
Cc1cc2ncc(-c3ccccc3)nc2cc1C

>  <targetUnderTest>
CDK3/cyclin E (Homo sapiens) (UniProt P24864+O96020+Q00526)

>  <resultUnits>
%

>  <residual activity>
96

$$$$
>  <compound>
N#C/C(=C(\N)Sc1ccc(N)cc1)c1ccccc1C(F)(F)F

>  <targetUnderTest>
CDK3/cyclin E (Homo sapiens) (UniProt P24864+O96020+Q00526)

>  <resultUnits>
%

>  <residual activity>
96

$$$$
>  <compound>
CC(C)n1cnc2/c(=N/c3cccc(Cl)c3)nc(NCCO)[nH]c21

>  <targetUnderTest>
CDK3/cyclin E (Homo sapiens) (UniProt P24864+O96020+Q00526)

>  <resultUnits>
%

>  <residual activity>
44

$$$$
>  <compound>
O=c1cc(-c2cccc3c2Sc2ccccc2S3)oc(N2CCOCC2)c1

>  <targetUnderTest>
CDK3/cyclin E (Homo sapiens) (UniProt P24864+O96020+Q00526)

>  <resultUnits>
%

>  <residual activity>
99

$$$$
>  <compound>
COc1ccc(CNc2nc(N(CCO)CCO)nc3c2ncn3C(C)C)cc1

>  <targetUnderTest>
CDK3/cyclin E (Homo sapiens) (UniProt P24864+O96020+Q00526)

>  <resultUnits>
%

>  <residual activity>
52

$$$$
>  <compound>
COc1cc2ncnc(Nc3ccc(NC(=O)c4ccccc4)cc3)c2cc1OC

>  <targetUnderTest>
CDK3/cyclin E (Homo sapiens) (UniProt P24864+O96020+Q00526)

>  <resultUnits>
%

>  <residual activity>
107

$$$$
>  <compound>
COc1ccc(S(=O)(=O)N(CCO)c2ccccc2CN(C)C/C=C/c2ccc(Cl)cc2)cc1

>  <targetUnderTest>
CDK3/cyclin E (Homo sapiens) (UniProt P24864+O96020+Q00526)

>  <resultUnits>
%

>  <residual activity>
92

$$$$
>  <compound>
Nc1cccc(-c2cc3c(Oc4cccc(O)c4)ncnc3[nH]2)c1

>  <targetUnderTest>
CDK3/cyclin E (Homo sapiens) (UniProt P24864+O96020+Q00526)

>  <resultUnits>
%

>  <residual activity>
82

$$$$
>  <compound>
CO[C@H]1C[C@@H]2CC[C@@H](C)[C@@](O)(O2)C(=O)C(=O)N2CCCC[C@H]2C(=O)O[C@H]([C@H](C)C[C@@H]2CC[C@@H](O)[C@H](OC)C2)CC(=O)[C@H](C)/C=C(\C)[C@@H](O)[C@@H](OC)C(=O)[C@H](C)C[C@H](C)/C=C/C=C/C=C/1C

>  <targetUnderTest>
CDK3/cyclin E (Homo sapiens) (UniProt P24864+O96020+Q00526)

>  <resultUnits>
%

>  <residual activity>
90

$$$$
>  <compound>
Nc1ccc2ncnc(NCCc3ccc(Oc4ccccc4)cc3)c2c1

>  <targetUnderTest>
CDK3/cyclin E (Homo sapiens) (UniProt P24864+O96020+Q00526)

>  <resultUnits>
%

>  <residual activity>
107

$$$$
>  <compound>
CNc1cc2c(Nc3cccc(Br)c3)ncnc2cn1

>  <targetUnderTest>
CDK3/cyclin E (Homo sapiens) (UniProt P24864+O96020+Q00526)

>  <resultUnits>
%

>  <residual activity>
88

$$$$
>  <compound>
Oc1ccc(Nc2nc(-c3ccc(Cl)cc3)cs2)cc1

>  <targetUnderTest>
CDK3/cyclin E (Homo sapiens) (UniProt P24864+O96020+Q00526)

>  <resultUnits>
%

>  <residual activity>
108

$$$$
>  <compound>
Oc1ccc(-c2nc(-c3ccc(F)cc3)c(-c3ccncc3)[nH]2)cc1

>  <targetUnderTest>
CDK3/cyclin E (Homo sapiens) (UniProt P24864+O96020+Q00526)

>  <resultUnits>
%

>  <residual activity>
109

$$$$
>  <compound>
O=C1Nc2ccccc2/C1=C1/Nc2ccccc2/C1=N\OCCC(O)CO (configuration not stated)

>  <targetUnderTest>
CDK3/cyclin E (Homo sapiens) (UniProt P24864+O96020+Q00526)

>  <resultUnits>
%

>  <residual activity>
21

$$$$
>  <compound>
Cc1ccc(S(=O)(=O)/C=C/C#N)cc1

>  <targetUnderTest>
CDK3/cyclin E (Homo sapiens) (UniProt P24864+O96020+Q00526)

>  <resultUnits>
%

>  <residual activity>
93

$$$$
>  <compound>
Cc1ccc(NC2=CC(=O)c3sc(C)nc3C2=O)cc1

>  <targetUnderTest>
CDK3/cyclin E (Homo sapiens) (UniProt P24864+O96020+Q00526)

>  <resultUnits>
%

>  <residual activity>
92

$$$$
>  <compound>
c1ccc(-c2n[nH]cc2-c2ccnc3ccccc23)nc1

>  <targetUnderTest>
CDK3/cyclin E (Homo sapiens) (UniProt P24864+O96020+Q00526)

>  <resultUnits>
%

>  <residual activity>
83

$$$$
>  <compound>
COc1cccc(-c2cc(=O)c3ccccc3o2)c1N

>  <targetUnderTest>
CDK3/cyclin E (Homo sapiens) (UniProt P24864+O96020+Q00526)

>  <resultUnits>
%

>  <residual activity>
90

$$$$
>  <compound>
O=C1Nc2cc(Br)ccc2/C1=C1/Nc2ccccc2/C1=N\O

>  <targetUnderTest>
CDK3/cyclin E (Homo sapiens) (UniProt P24864+O96020+Q00526)

>  <resultUnits>
%

>  <residual activity>
0

$$$$
>  <compound>
CCOc1cc2ncnc(Nc3cccc(Br)c3)c2cc1OCC

>  <targetUnderTest>
CDK3/cyclin E (Homo sapiens) (UniProt P24864+O96020+Q00526)

>  <resultUnits>
%

>  <residual activity>
103

$$$$
>  <compound>
Oc1n[nH]c2nnc(-c3c(-c4ccccc4)nn4ccccc34)cc12

>  <targetUnderTest>
CDK3/cyclin E (Homo sapiens) (UniProt P24864+O96020+Q00526)

>  <resultUnits>
%

>  <residual activity>
84

$$$$
>  <compound>
CC[n+]1c(/C=C/N(C)c2ccccc2)n(-c2ccccc2)c2ccc(-c3nc4ccccc4s3)cc21

>  <targetUnderTest>
CDK3/cyclin E (Homo sapiens) (UniProt P24864+O96020+Q00526)

>  <resultUnits>
%

>  <residual activity>
108

$$$$
>  <compound>
CCC(=O)Nc1ccc2ncnc(Nc3cccc(Br)c3)c2c1

>  <targetUnderTest>
CDK3/cyclin E (Homo sapiens) (UniProt P24864+O96020+Q00526)

>  <resultUnits>
%

>  <residual activity>
101

$$$$
>  <compound>
COc1ccc(C(=O)Nc2sc3c(c2C(N)=O)CCCC3)cc1OC

>  <targetUnderTest>
CDK3/cyclin E (Homo sapiens) (UniProt P24864+O96020+Q00526)

>  <resultUnits>
%

>  <residual activity>
101

$$$$
>  <compound>
O=c1c2ccccc2[nH]c(=S)n1CCN1CCC(=C(c2ccc(F)cc2)c2ccc(F)cc2)CC1

>  <targetUnderTest>
CDK3/cyclin E (Homo sapiens) (UniProt P24864+O96020+Q00526)

>  <resultUnits>
%

>  <residual activity>
114

$$$$
>  <compound>
CCN(CC)CCCCN1c2ccccc2Oc2ccc(Cl)cc21

>  <targetUnderTest>
CDK3/cyclin E (Homo sapiens) (UniProt P24864+O96020+Q00526)

>  <resultUnits>
%

>  <residual activity>
117

$$$$

The measurements presented in this section are drawn from ChEMBL document CHEMBL2218924.
